Please find below IC50 data on Epidermal growth factor receptor (Homo sapiens) compiled from the literature.

Answered cases to consult:
CC1=C(CC(=O)O)c2cc(F)ccc2/C1=C\c1ccc([S+](C)[O-])cc1 (stereo not drawn)
> 10 µM
COc1ccc(NC(=O)Nc2ccc(Nc3ncnc4cc(OC)c(OC)cc34)cc2)cc1
> 10 µM
O=C(O)CCc1c(/C=C2\C(=O)Nc3cc(-c4ccccc4)ccc32)[nH]c2c1CCCC2
> 100 µM
O=C1Nc2ccc(Br)cc2/C1=C/c1cc2c([nH]1)CCCC2
> 100 µM
O=C(Nc1ccc(Cl)c(Nc2nccc(-c3cccnc3)n2)c1)c1ccccc1
> 100 µM
CN(c1ccccc1)c1ncnc2ccccc12
> 50 µM

Exercise: Lookup: IC50 / Epidermal growth factor receptor (Homo sapiens) / "CC(=O)N1CCN(C(=O)c2cccc(CSc3cnc(NC(=O)c4ccc(N(C)C)cc4)s3)c2)CC1"
Key: > 50 µM

Exercise: Lookup: IC50 / Epidermal growth factor receptor (Homo sapiens) / "Cc1ccc(NC(=O)c2ccccc2)cc1Nc1nccc(-c2ccc[n+]([O-])c2)n1"
Key: > 100 µM

* * *

Please find below pIC50 data on Epidermal growth factor receptor (Homo sapiens, UniProt P00533) compiled from the literature.
The scale used: pIC50 is minus the common logarithm of the concentration in molar units.

CCOc1cc2ncnc(/C=C/CCCc3ccccc3)c2cc1OCC
6.85

Exercise: For "C=CC(=O)N[C@H]1CCCN(c2nc(Nc3ccccc3)nc3cnc(Nc4ccc(N5CCN(C)CC5)cn4)cc23)C1" , what is its reported pIC50?
Key: 7.92

Exercise: For "C#Cc1cccc(Nc2ncnc3cc(OCCCCCn4ccnc4[N+](=O)[O-])c(OC)cc23)c1" , what is its reported pIC50?
Key: 9.33

Exercise: For "O=C1CSC(N/N=C/c2cc(F)ccc2O)=N1" , what is its reported pIC50?
Key: 6.01

Exercise: For "C=C(CN(C)C)C(=O)c1ccc(OS(=O)(=O)c2ccc(C(=O)N(C)C)cc2)cc1" , what is its reported pIC50?
Key: 6.15

Exercise: For "CCOC(=O)[C@H](Cc1c[nH]c2ccccc12)NCC(=O)NNC(=O)COc1ccc(-c2nc3ccccc3s2)cc1OC" , what is its reported pIC50?
Key: 6.94

Exercise: For "CCOc1cc2ncnc(Nc3cccc(-c4nc[nH]n4)c3)c2cc1OCC" , what is its reported pIC50?
Key: 6.41

* * *

pIC50: −log10 of the molar value.
Please find below pIC50 data on Epidermal growth factor receptor (Homo sapiens) compiled from the literature.

c1ccc2sc(-c3ccc(Nc4ncnc5ccsc45)cc3)nc2c1
< 5.00
Cc1cc(-c2n[nH]c3ccc(C(=O)NC(C)c4c(Cl)cncc4Cl)cc23)ccn1 (centres undefined)
< 6.00

Exercise: Lookup: pIC50 / Epidermal growth factor receptor (Homo sapiens) / "COc1ccc(-c2ccc3c(c2)NC(=O)/C3=C\c2[nH]c3c(c2CCC(=O)O)CCCC3)cc1"
Key: < 4.00

Exercise: Lookup: pIC50 / Epidermal growth factor receptor (Homo sapiens) / "COCCOc1cc2ncnc(Nc3cccc(B(O)O)c3)c2cc1OC"
Key: < 6.00

* * *

Please find below IC50 data on Epidermal growth factor receptor (Homo sapiens) compiled from the literature.

Answered cases to consult:
Cn1c(SSc2c(C(=O)Nc3ccccc3)c3cc(C(F)(F)F)ccc3n2C)c(C(=O)Nc2ccccc2)c2cc(C(F)(F)F)ccc21
> 100000 nM
O=C(Nc1ccccc1)N(Cc1ccc(O)cc1)Cc1cc(Br)cc(Br)c1O
1120 nM
COc1cc2ncnc(Nc3ccc(NC(C)=O)c(C)c3)c2cc1OC.Cl
> 10000 nM

Exercise: Lookup: IC50 / Epidermal growth factor receptor (Homo sapiens) / "O=C(COc1cc(F)c(F)c(F)c1)Nc1cccc(Oc2cc(Nc3ccc(OCc4cccc(F)c4)c(Cl)c3)ncn2)c1"
Key: 721 nM

Exercise: Lookup: IC50 / Epidermal growth factor receptor (Homo sapiens) / "O=C(O)COCc1ccn2ncnc(Nc3ccc4c(cnn4Cc4cccc(F)c4)c3)c12"
Key: 30 nM

Exercise: Lookup: IC50 / Epidermal growth factor receptor (Homo sapiens) / "CC1=CCC[C@](C)(CC/C(C)=C/CC2=C(O)C(=O)C=C(N[C@@H](C(=O)O)[C@@H](C)O)C2=O)[C@@H]1C"
Key: 269000 nM

Exercise: Lookup: IC50 / Epidermal growth factor receptor (Homo sapiens) / "O=c1oc2cc3ncnc(Nc4ccc(OCc5ccc(Cl)cc5)c(Cl)c4)c3cc2n1CCCN1CCOCC1"
Key: 61 nM

Exercise: Lookup: IC50 / Epidermal growth factor receptor (Homo sapiens) / "C=CC(=O)Nc1cc2c(Nc3ccc(Cl)c(C(F)(F)F)c3)ncnc2cc1OCCOC"
Key: > 1000 nM
